Tested on: Plasmodium falciparum NF54 asexual blood stage
protocol: % inhibition of asexual blood stage proliferation (pLDH); higher = more inhibition
run parameters: 20 µM; 72 h
endpoint label: % inhibition of asexual blood stage proliferation (%)

COC1CC2CCC(C)C(O)(O2)C(=O)C(=O)N2CCCCC2C(=O)OC(C(C)CC2CCC(OCCO)C(OC)C2)CC(=O)C(C)/C=C(\C)C(O)C(OC)C(=O)C(C)CC(C)/C=C/C=C/C=C/1C (stereo not given) : 90.3
Nc1nc(O)c2ncn(COC(CO)CO)c2n1 : 41.8
CN(C)CCNC(=O)c1cccc2cccnc12 : -0.35
Nc1nc2c(Cc3cccnc3)c[nH]c2c(=O)[nH]1 : 19.8
O=C1C=C(c2ccccc2)S(=O)(=O)c2ccccc21 : 54.4
O=S(=O)(Nc1cccc2cccnc12)c1ccccc1 : 70
Fc1ccc2c(/C=C/c3nnn[nH]3)c[nH]c2c1 : 10.8
C[C@@H](NC(=O)c1ccccc1-c1ccccc1)B(O)O : -3.48
CCCCOC(=O)Nc1cc2nc(C3CCCCC3)[nH]c2cc1N(CC)CC : 83.2
O=C(NCc1ccc(F)cc1)c1c(O)c2ncccc2[nH]c1=O : 31.4

---

System: Plasmodium falciparum NF54 asexual blood stage
protocol: % inhibition of asexual blood stage proliferation (pLDH); higher = more inhibition
run parameters: 2 µM; 72 h
endpoint label: % inhibition of asexual blood stage proliferation (%)

CNc1nc(=O)[nH]cc1F : -10.3
CCC(C)NCC(O)Cn1c2ccc(Cl)cc2c2cc(Cl)ccc21 (configuration not stated) : 68.7
Cc1ccn2c(C(=O)NCc3ccccc3)c(C)nc2c1 : 44.3
CCc1ccccc1OCCN1CCCCCC1 : 10.6
O=C(Nc1nnc(-c2ccccc2)o1)c1ccc(F)cc1 : 52.8
O=C(Nc1ncc(Cc2cccc3ccccc23)s1)C1CCCCC1 : 22.6
c1cnc(NCc2ccc(CNc3ncccn3)cc2)nc1 : 13.7
CCCC(=O)OCCc1ccccc1 : 8.06
CCc1nc(N)nc(N)c1C#CC(C)c1cc(OC)cc(-c2ccncc2)c1 (configuration not stated) : 51.1
C/C(=N\NC(=O)C1CC1c1ccccc1)c1ccc(NC(=O)c2ccco2)cc1 (configuration not stated) : 18.8
O=S(=O)(Nc1ccc(-n2cccc2)cc1)c1ccc(Cl)c(Cl)c1 : 6.75
Cc1ccc(Oc2ccccc2-c2csc(NC3=NCCCN3)n2)c(C)c1 : 11.5

---

Tested on: Plasmodium falciparum NF54 stage IV/V gametocytes
protocol: % inhibition of gametocyte viability (PrestoBlue); higher = more inhibition
run parameters: 5 µM; 48 h
Threshold-based label: % inhibition of gametocyte viability under 20% gives T, % inhibition of gametocyte viability not under 20% gives F.

CCCCc1ccc(-c2cc(C(=O)O)cc(-c3ccc(Cl)cc3)n2)cc1 : T
CCCCCOc1ccc(/C=C2\Oc3c(ccc(O)c3O)C2=O)c(O)c1 : T
COc1cc(C2C3=C(CC(C)(C)CC3=O)Nc3ccccc3N2C(C)=O)ccc1OCc1ccccc1 (stereo not given) : T
CC1(C)CC(NC(=O)C(=O)Nc2ccc(Cl)cc2)CC(C)(C)N1 : T
CONC(=N)c1ccc(-c2ccc(-c3ccc(C(=N)NOC)cc3)o2)cc1 : T
CCCCC(CC)CNC(=N)NC(=N)NCCCCCCNC(=N)NC(=N)NCC(CC)CCCC (stereo not given) : F
Nc1nc(NC2Cc3ccc(F)cc3C2)nc(N2CCCCC2)n1 (stereo not given) : F
CCc1nc(N)nc(N)c1C#CCc1ccccc1 : T
NCCCc1ccccc1C(=O)Nc1ncc([N+](=O)O)s1 : F
